# Test system: Wild type
# protocol_details: S. aureus survival, RN4220 and DeltatarO strains – OD600, teichoic acid synthesis inhibitors, primary screen (AID 463173)
# test_conditions: S. aureus RN4220 wild type/DeltatarO growth, OD600, 18 h, hits give low values, screened at 18.75 µg/mL (by protocol)
Screen size: about 52,000 compounds; about 1,700 (3.3%) were called active. Many of the other results were omitted from the sample, so actives are more common in it than they were.
value_kind: survival (%)
Field: numeric (%). Do not append units.

Problem: Param item = Cc1ccc(OCC(=O)Nc2nnc(S(=O)(=O)N3CCc4ccccc43)s2)cc1 ; retrieve measured survival.
Solution: 24

Problem: Param item = CN(Cc1ccccc1)S(=O)(=O)c1nnc(NC(=O)c2ccccc2)s1 ; retrieve measured survival.
Solution: 35

Problem: Param item = Fc1ccc(-n2nc(-c3ccccc3)c3cnc4ccccc4c32)cc1Cl ; retrieve measured survival.
Solution: 138

Lab note: next molecule to report on.
Problem: Param item = CC1Cc2ccccc2N1S(=O)(=O)c1nnc(NC(=O)c2cccc(F)c2)s1 (stereo not drawn) ; retrieve measured survival.
Solution: 10

Recorded values, source PubChem BioAssay AID463173.
